Would you mind telling me the reported shrunken log2 fold change of each entry?
- System: Escherichia coli TOP10;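 also: peptides expressed intracellularly from a pBAD plasmid library in pooled LB shake-flask culture, induced with 0.3% L-arabinose, DNA abundance read by NGS, three biological replicates, DESeq2 with apeglm shrinkage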
- experimental-protocol: shrunken log2 fold change of peptide-encoding DNA abundance (4.5 h post-induction vs induction); higher = less antimicrobial activity (less host growth inhibition)
- condition-info: time post-induction: 4.5 h; library: site-saturation at positions 5, 18, 19, 20

Looking for the measured shrunken log2 fold change of RRIRARPPRLPRPRPRPSFGPRP , can you help?
1.08

Looking for the measured shrunken log2 fold change of RRIRGRPPRLPRPRPRPETQPRP , can you help?
2.49

Looking for the measured shrunken log2 fold change of RRIRFRPPRLPRPRPRPETVPRP , can you help?
0.0039

Looking for the measured shrunken log2 fold change of RRIRIRPPRLPRPRPRPCPGPRP , can you help?
-0.372

Looking for the measured shrunken log2 fold change of RRIRTRPPRLPRPRPRPSVTPRP , can you help?
-0.0217

Looking for the measured shrunken log2 fold change of RRIRKRPPRLPRPRPRPTSNPRP , can you help?
0.161

Looking for the measured shrunken log2 fold change of RRIRRRPPRLPRPRPRPQQDPRP , can you help?
0.0793

Looking for the measured shrunken log2 fold change of RRIRVRPPRLPRPRPRPTFDPRP , can you help?
-0.0428

Looking for the measured shrunken log2 fold change of RRIRLRPPRLPRPRPRPLYWPRP , can you help?
-0.372

Looking for the measured shrunken log2 fold change of RRIRRRPPRLPRPRPRPTDYPRP , can you help?
-0.00271

Looking for the measured shrunken log2 fold change of RRIRPRPPRLPRPRPRPTDYPRP , can you help?
-0.132

Looking for the measured shrunken log2 fold change of RRIRMRPPRLPRPRPRPSRPPRP , can you help?
0.764

Looking for the measured shrunken log2 fold change of RRIRKRPPRLPRPRPRPAFNPRP , can you help?
-0.169

Looking for the measured shrunken log2 fold change of RRIRKRPPRLPRPRPRPNLYPRP , can you help?
-0.111

Looking for the measured shrunken log2 fold change of RRIRRRPPRLPRPRPRPGMNPRP , can you help?
0.00468

Looking for the measured shrunken log2 fold change of RRIRVRPPRLPRPRPRPDCQPRP , can you help?
0.00516

Looking for the measured shrunken log2 fold change of RRIRLRPPRLPRPRPRPTTWPRP , can you help?
0.0965

Looking for the measured shrunken log2 fold change of RRIRQRPPRLPRPRPRPPEHPRP , can you help?
0.0412

Looking for the measured shrunken log2 fold change of RRIRDRPPRLPRPRPRPSFEPRP , can you help?
0.495

Looking for the measured shrunken log2 fold change of RRIRERPPRLPRPRPRPATNPRP , can you help?
-0.386

Looking for the measured shrunken log2 fold change of RRIRFRPPRLPRPRPRPWGPPRP , can you help?
-0.106

Looking for the measured shrunken log2 fold change of RRIRYRPPRLPRPRPRPGPCPRP , can you help?
-0.227

Looking for the measured shrunken log2 fold change of RRIRKRPPRLPRPRPRPYTSPRP , can you help?
-0.05

Looking for the measured shrunken log2 fold change of RRIRRRPPRLPRPRPRPCVPPRP , can you help?
-0.149

Looking for the measured shrunken log2 fold change of RRIRTRPPRLPRPRPRPTHRPRP , can you help?
-0.185

Looking for the measured shrunken log2 fold change of RRIRARPPRLPRPRPRPNRKPRP , can you help?
0.131

Looking for the measured shrunken log2 fold change of RRIRCRPPRLPRPRPRPVVTPRP , can you help?
-0.0488

Looking for the measured shrunken log2 fold change of RRIRNRPPRLPRPRPRPSWWPRP , can you help?
0.28

Looking for the measured shrunken log2 fold change of RRIRDRPPRLPRPRPRPKYVPRP , can you help?
0.13

Looking for the measured shrunken log2 fold change of RRIRGRPPRLPRPRPRPWVTPRP , can you help?
0.0039

Looking for the measured shrunken log2 fold change of RRIRHRPPRLPRPRPRPRVVPRP , can you help?
0.072

Looking for the measured shrunken log2 fold change of RRIRARPPRLPRPRPRPLYCPRP , can you help?
0.765
